- TARGET_SYSTEM: human FXR (Homo sapiens, UniProt Q96RI1)
- Sequence (Q96RI1 262-486 limits assumed): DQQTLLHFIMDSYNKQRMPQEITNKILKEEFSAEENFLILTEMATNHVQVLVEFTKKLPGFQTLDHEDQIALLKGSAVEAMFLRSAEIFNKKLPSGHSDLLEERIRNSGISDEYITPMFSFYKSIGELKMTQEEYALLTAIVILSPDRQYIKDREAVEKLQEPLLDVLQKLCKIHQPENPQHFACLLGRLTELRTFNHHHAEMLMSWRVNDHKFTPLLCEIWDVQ
- ASSAY: transient human FXR/Gal4-luciferase reporter assay
- TEST_SETTINGS: Gal4-hFXR fusion construct, luciferase reporter in HEK293 cells; overnight incubation; response as percentage of 8 μM GW-4064 control
OBSERVED_PROPERTY: pEC50
Reminder that pEC50 is minus the log10 of a molar concentration.

Please review the following examples before continuing.
MOLECULE: CC(F)(F)c1nc(C23CCC(CN(C(=O)C4CCS(=O)(=O)CC4)c4cc(F)cc(C#N)c4)(CC2)CC3)no1 [Example 138]
RESULT: 5.40
//
MOLECULE: CC(N(C(=O)C12CC(F)(C1)C2)c1cccc(C#N)c1)C12CCC(c3nc(C4CC4)no3)(CC1)CC2 (centres unmarked) [Example 70]
RESULT: 5.70
//
MOLECULE: CC(C)(C)c1noc(C23CCC(CN(C(=O)C45CC(F)(C4)C5)c4cccc(P(C)(C)=O)c4)(CC2)CC3)n1 [Example 43]
RESULT: 5.40
//
MOLECULE: CCOc1cccc(N(CC23CCC(c4nc(C5CC5)no4)(CC2)CC3)C(=O)[C@H]2C[C@](O)(C(F)(F)F)C2)c1 [Example 54]
RESULT: 6.03
//
MOLECULE: CC(C)(C)c1noc(C23CCC(CN(C(=O)C4CCC(F)(F)CC4)c4cccc(C#N)c4)(CC2)CC3)n1 [Example 42]
RESULT: 5.90
//
MOLECULE: CC(C)(C#N)Oc1ccc(Nc2cccc(N(CC34CCC(c5ccc(C(C)(F)F)cn5)(CC3)CC4)C(=O)[C@H]3C[C@](O)(C(F)(F)F)C3)c2)cc1 [Example 92]
RESULT: 5.69
//
MOLECULE: CC(C)Oc1cccc(N(CC23CCC(c4nc(C(C)(C)C)no4)(CC2)CC3)C(=O)[C@H]2C[C@](O)(C(F)(F)F)C2)c1 [Example 123]
RESULT: 5.70
//
MOLECULE: CC(C)(Oc1cccc(N(CC23CCC(c4noc(C(C)(C)C)n4)(CC2)CC3)C(=O)C23CC(F)(C2)C3)c1)C(=O)O [Example 113]
RESULT: 5.70

The molecule CC(C)Oc1cccc(N(CC23CCC(c4noc(C(C)(F)F)n4)(CC2)CC3)C(=O)[C@H]2C[C@@](C)(O)C2)c1 [Example 125] showed pEC50 equal to 5.82

The molecule CC(C)(C)c1noc(C23CCC(CN(C(=O)C45CC(F)(C4)C5)c4ccc(Cl)c(Br)c4)(CC2)CC3)n1 [Example 37] showed pEC50 equal to 5.97

The molecule CCNC(=O)c1cc(N(CC23CCC(c4nc(C(C)(C)C)no4)(CC2)CC3)C(=O)C23CC(F)(C2)C3)ccc1F [Example 122] showed pEC50 equal to 6.91
